The reported numbers originate from patent US20230364074A1.

Tested on: SARS-CoV-2 FSE (−1 PRF)
Assay: cells
Type: cell-based
Details: Severe acute respiratory syndrome coronavirus 2, HEK-293T, 24 h; read-out: PERCENT EFFECT (Increased GFP/Red Ratio)

[
  {
    "Compound": "CC(=O)[C@]1(O)Cc2c(O)c3c(c(O)c2[C@@H](O[C@H]2C[C@H](N)[C@H](O)[C@H](C)O2)C1)C(=O)c1ccccc1C3=O [idarubicin]",
    "Tested System": "SARS-CoV-2 FSE (−1 PRF)",
    "Unit Of Measure": "%",
    "activation at 10 µM": -40.6
  },
  {
    "Compound": "NCCCNc1ccc2c3c(nn2CCNCCO)-c2c(O)ccc(O)c2C(=O)c13 [piroxantrone]",
    "Tested System": "SARS-CoV-2 FSE (−1 PRF)",
    "Unit Of Measure": "%",
    "activation at 10 µM": -43.5
  },
  {
    "Compound": "CCCCC(=O)O[C@H]1CC[C@H]2[C@@H]3CCc4cc(O)ccc4[C@H]3CC[C@]12C [ESTRADIOL VALERATE]",
    "Tested System": "SARS-CoV-2 FSE (−1 PRF)",
    "Unit Of Measure": "%",
    "activation at 10 µM": -10.8
  },
  {
    "Compound": "CC[n+]1c(-c2ccccc2)c2cc(N)ccc2c2ccc(N)cc21 [HOMIDIUM BROMIDE]",
    "Tested System": "SARS-CoV-2 FSE (−1 PRF)",
    "Unit Of Measure": "%",
    "activation at 10 µM": -58
  }
]

----------
Reported activation at 10 µM by item:
Test system: SARS-CoV-2 FSE (−1 PRF)
Test: cells
Format: cell-based
Conditions: Severe acute respiratory syndrome coronavirus 2, HEK-293T, 24 h; read-out: PERCENT EFFECT (Increased GFP/Red Ratio)
Where a name gives a salt, the structure may show the parent alone.

[
  {
    "Compound": "CCOC(=O)Nc1ccc(NCc2ccc(F)cc2)nc1N [flupirtine]",
    "activation at 10 µM": "14.4%"
  },
  {
    "Compound": "Cc1cc(-c2ccc(/N=N/c3ccc4c(S(=O)(=O)O)cc(S(=O)(=O)O)c(N)c4c3O)c(C)c2)ccc1/N=N/c1ccc2c(S(=O)(=O)O)cc(S(=O)(=O)O)c(N)c2c1O [EVANS BLUE]",
    "activation at 10 µM": "-13.6%"
  },
  {
    "Compound": "Cc1cccc(C)c1N=C1NCCCS1 [XYLAZINE]",
    "activation at 10 µM": "28.9%"
  },
  {
    "Compound": "CCCC1(CCC)CCC2(CCN(CCCN(CC)CC)C2)CC1 [atiprimod]",
    "activation at 10 µM": "21.2%"
  },
  {
    "Compound": "CCN1/C(=C/C=C/C=C/c2sc3ccccc3[n+]2CC)Sc2ccccc21.[I-] [dithiazanine]",
    "activation at 10 µM": "-39%"
  },
  {
    "Compound": "O=[N+]([O-])c1cc(Cl)cc(-c2cc(Cl)cc([N+](=O)[O-])c2O)c1O [niclofolan]",
    "activation at 10 µM": "17.2%"
  },
  {
    "Compound": "C[C@H]1O[C@@H](O[C@H]2[C@@H](O)C[C@H](O[C@H]3[C@@H](O)C[C@H](O[C@H]4CC[C@@]5(C)[C@H](CC[C@@H]6[C@@H]5CC[C@]5(C)[C@@H](C7=CC(=O)OC7)CC[C@]65O)C4)O[C@@H]3C)O[C@@H]2C)C[C@H](O)[C@@H]1O [digitoxin]",
    "activation at 10 µM": "16.8%"
  },
  {
    "Compound": "COc1cccc2c1C(=O)c1c(O)c3c(c(O)c1C2=O)C[C@@](O)(C(=O)CO)C[C@@H]3O[C@H]1C[C@H](N)[C@H](O)[C@H](C)O1 [DOXORUBICIN]",
    "activation at 10 µM": "-54.1%"
  },
  {
    "Compound": "O=C(CCCCCCC(=O)Nc1ccccc1)NO [vorinostat]",
    "activation at 10 µM": "15.2%"
  },
  {
    "Compound": "O=C(Nc1cccc(C(F)(F)F)c1)c1ccccc1O [salfluverine]",
    "activation at 10 µM": "18.9%"
  },
  {
    "Compound": "C[C@H]1O[C@@H](n2cc(F)c(=O)[nH]c2=O)[C@H](O)[C@@H]1O [DOXIFLURIDINE]",
    "activation at 10 µM": "17.1%"
  },
  {
    "Compound": "O=C(Nc1ccc(Cl)cc1)Nc1ccc(Cl)c(C(F)(F)F)c1 [halocarban]",
    "activation at 10 µM": "23.9%"
  },
  {
    "Compound": "CCN(CC)CCCC(C)Nc1c2ccc(Cl)cc2nc2ccc(OC)cc12 (stereo not drawn) [QUINACRINE HYDROCHLORIDE]",
    "activation at 10 µM": "21.1%"
  },
  {
    "Compound": "NCCNc1ccc(NCCN)c2c1C(=O)c1ccncc1C2=O [Pixantrone dimaleate]",
    "activation at 10 µM": "15.8%"
  },
  {
    "Compound": "CCC1=C[C@@H]2CN(C1)Cc1c([nH]c3ccccc13)[C@@](C(=O)OC)(c1cc3c(cc1OC)N(C)[C@H]1[C@@](O)(C(=O)OC)[C@H](OC(C)=O)[C@]4(CC)C=CCN5CC[C@]31[C@@H]54)C2 [Vinorelbine]",
    "activation at 10 µM": "15.2%"
  }
]

----------
System: HEK293T cells
Experiment: Cell viability in the high-throughput screen (cell nuclei numbers)
Settings: human
Structures can show the parent of a compound that is named as a salt.
Quantity Measured: PERCENT VIABILITY

[
  {
    "Molecule": "Clc1ccc(C(Cn2ccnc2)OCc2ccsc2Cl)c(Cl)c1 (stereo not shown)",
    "Result": "99.7%"
  },
  {
    "Molecule": "CC(=O)[C@]1(N)Cc2c(O)c3c(c(O)c2[C@@H](O[C@H]2C[C@H](O)[C@H](O)CO2)C1)C(=O)c1ccccc1C3=O.Cl",
    "Result": "111.0%"
  },
  {
    "Molecule": "O=P(O)(O)OC1[C@H](OP(=O)(O)O)[C@H](O)C(O)[C@H](O)[C@H]1OP(=O)(O)O (stereo partly shown)",
    "Result": "199.8%"
  },
  {
    "Molecule": "Nc1c2c(nc3ccccc13)CCCC2 [TACRINE HYDROCHLORIDE]",
    "Result": "148.9%"
  }
]

----------
System: HEK293T cells
Assay: Cell viability in the high-throughput screen (cell nuclei numbers)
Details: 10 μM compound, cell nuclei numbers
Structures can show the parent of a compound that is named as a salt.
Quantity Measured: PERCENT VIABILITY (%)

[
  {
    "Compound": "COc1cccc2c1C(=O)c1c(O)c3c(c(O)c1C2=O)C[C@@](O)(C(C)=O)C[C@@H]3O[C@H]1C[C@H](N)[C@H](O)[C@H](C)O1",
    "Number": 15.3
  },
  {
    "Compound": "CCN(CCO)CCCC(C)Nc1ccnc2cc(Cl)ccc12 (stereo not shown) [HYDROXYCHLOROQUINE SULFATE]",
    "Number": 346.2
  },
  {
    "Compound": "CCNCC1CCN(c2c(F)cc3c(=O)c(C(=O)O)cn(CC)c3c2F)C1 (stereo not shown)",
    "Number": 168.57
  },
  {
    "Compound": "CCC1=C[C@@H]2CN(C1)Cc1c([nH]c3ccccc13)[C@@](C(=O)OC)(c1cc3c(cc1OC)N(C)[C@H]1[C@@](O)(C(=O)OC)[C@H](OC(C)=O)[C@]4(CC)C=CCN5CC[C@]31[C@@H]54)C2",
    "Number": 27.8
  },
  {
    "Compound": "C[C@H]1O[C@@H](n2cc(F)c(=O)[nH]c2=O)[C@H](O)[C@@H]1O",
    "Number": 382.9
  },
  {
    "Compound": "C[C@H]1O[C@@H](O[C@H]2[C@@H](O)C[C@H](O[C@H]3[C@@H](O)C[C@H](O[C@H]4CC[C@@]5(C)[C@H](CC[C@@H]6[C@@H]5CC[C@]5(C)[C@@H](C7=CC(=O)OC7)CC[C@]65O)C4)O[C@@H]3C)O[C@@H]2C)C[C@H](O)[C@@H]1O",
    "Number": 6.9
  },
  {
    "Compound": "O=[N+]([O-])c1cc(Cl)cc(-c2cc(Cl)cc([N+](=O)[O-])c2O)c1O",
    "Number": 68.0
  },
  {
    "Compound": "CCN(CC)CCNC(=O)c1cc(Br)c(N)cc1OC [BROMOPRIDE]",
    "Number": 113.8
  },
  {
    "Compound": "O=C(CCCCCCC(=O)Nc1ccccc1)NO",
    "Number": 20.6
  },
  {
    "Compound": "Cc1cc(C)c(Nc2ccnc(Nc3ccc(C#N)cc3)n2)c(C)c1",
    "Number": 36.7
  }
]
